Data credit: ChEMBL document CHEMBL1138570

# Test system: Candida parapsilosis
# assay.method.text: Antimicrobial activity against Candida parapsilosis after 72 hrs by broth microdilution method
# Type: functional
# condition.summary: Lodderomyces parapsilosis
observable: MFC (µg/mL)

INSERT INTO results (record_smiles, observable, relation, reported) VALUES
  ('CCCC(=O)NNc1[nH]c(-c2ccc(C)cc2)cc1C(=O)OCC', 'MFC', '>', 100),
  ('CCOC(=O)c1cc(-c2ccc(Cl)cc2)[nH]c1NNC(=O)C(C)C', 'MFC', '>', 100),
  ('COCCC(=O)NNc1[nH]c(-c2ccccc2)cc1C(=O)OC', 'MFC', '=', 100),
  ('CCOC(=O)c1cc(-c2ccc(C)cc2)[nH]c1NNC(=O)C(C)C', 'MFC', '>', 100),
  ('CCOC(=O)NNc1[nH]c(-c2ccccc2)cc1C(=O)OC', 'MFC', '=', 12.5),
  ('OC(Cn1cncn1)(Cn1cncn1)c1ccc(F)cc1F', 'MFC', '>', 100),
  ('CCOC(=O)NNc1[nH]c(-c2ccc(Cl)cc2)cc1C(=O)OCC', 'MFC', '=', 12.5),
  ('CCOC(=O)c1cc(-c2ccc(Cl)cc2)[nH]c1NNC(C)=O', 'MFC', '=', 25),
  ('COCC(=O)NNc1[nH]c(-c2ccccc2)cc1C#N', 'MFC', '=', 6.25),
  ('CCOC(=O)c1cc(-c2ccccc2)[nH]c1NNC(=O)CCOC', 'MFC', '=', 25),
  ('CCOC(=O)NNc1[nH]c(-c2ccccc2)cc1C#N', 'MFC', '=', 12.5),
  ('CCOC(=O)c1cc(-c2ccc(OC)cc2)[nH]c1NNC(=O)CC', 'MFC', '=', 25),
  ('C[C@@H]1[C@H](O)[C@@H](C)/C=C/C=C/C=C/C=C/C=C/C=C/C=C/[C@H](O[C@@H]2O[C@H](C)[C@@H](O)[C@H](N)[C@@H]2O)C[C@@H]2O[C@](O)(C[C@@H](O)C[C@@H](O)[C@H](O)CC[C@@H](O)C[C@@H](O)CC(=O)O[C@H]1C)C[C@H](O)[C@H]2C(=O)O', 'MFC', '=', 1.56),
  ('CCC(=O)NNc1[nH]c(-c2ccccc2)cc1C(=O)OC', 'MFC', '=', 12.5),
  ('CCOC(=O)c1cc(-c2ccccc2)[nH]c1NNC(=O)Cc1ccc(OC)cc1', 'MFC', '>', 100),
  ('CCOC(=O)c1cc(-c2ccc(OC)cc2)[nH]c1NNC(=O)CCOC', 'MFC', '=', 100),
  ('CCCC(=O)NNc1[nH]c(-c2ccccc2)cc1C(=O)OCC', 'MFC', '>', 100),
  ('CCOC(=O)NNc1[nH]c(-c2ccc(OC)cc2)cc1C(=O)OCC', 'MFC', '=', 25),
  ('CCC(=O)NNc1[nH]c(-c2ccccc2)cc1C#N', 'MFC', '=', 12.5),
  ('CCOC(=O)c1cc(-c2ccccc2)[nH]c1NNC(=O)CC', 'MFC', '=', 25),
  ('CCOC(=O)NNc1[nH]c(-c2ccc(OC)cc2)cc1C#N', 'MFC', '=', 100);

###

# System: Pichia kudriavzevii
# assay.method.text: Antimicrobial activity against Candida krusei after 72 hrs by broth microdilution method
# Type: functional
observable: log10 of MFC (log10 of the value in µg/mL)

INSERT INTO results (record_smiles, observable, reported) VALUES
  ('CCC(=O)NNc1[nH]c(-c2ccccc2)cc1C(=O)OC', 'log10 of MFC', 1.40),
  ('CCOC(=O)c1cc(-c2ccccc2)[nH]c1NNC(=O)CCOC', 'log10 of MFC', 1.70),
  ('CC(=O)NNc1[nH]c(-c2ccccc2)cc1C#N', 'log10 of MFC', 0.80),
  ('COC(=O)c1cc(-c2ccc(OC)cc2)[nH]c1NNC(C)=O', 'log10 of MFC', 0.80),
  ('CCC(=O)NNc1[nH]c(-c2ccc(OC)cc2)cc1C(=O)OC', 'log10 of MFC', 0.80),
  ('C[C@@H]1[C@H](O)[C@@H](C)/C=C/C=C/C=C/C=C/C=C/C=C/C=C/[C@H](O[C@@H]2O[C@H](C)[C@@H](O)[C@H](N)[C@@H]2O)C[C@@H]2O[C@](O)(C[C@@H](O)C[C@@H](O)[C@H](O)CC[C@@H](O)C[C@@H](O)CC(=O)O[C@H]1C)C[C@H](O)[C@H]2C(=O)O', 'log10 of MFC', 0.19),
  ('CCOC(=O)NNc1[nH]c(-c2ccc(OC)cc2)cc1C(=O)OCC', 'log10 of MFC', 2.00),
  ('COC(=O)c1cc(-c2ccccc2)[nH]c1NNC(C)=O', 'log10 of MFC', 1.10),
  ('CCOC(=O)NNc1[nH]c(-c2ccccc2)cc1C#N', 'log10 of MFC', 0.80),
  ('CCC(=O)NNc1[nH]c(-c2ccccc2)cc1C#N', 'log10 of MFC', 1.10),
  ('CCC(=O)NNc1[nH]c(-c2ccc(OC)cc2)cc1C#N', 'log10 of MFC', 1.10),
  ('CCCC(=O)NNc1[nH]c(-c2ccc(OC)cc2)cc1C(=O)OCC', 'log10 of MFC', 2.00),
  ('COCCC(=O)NNc1[nH]c(-c2ccc(OC)cc2)cc1C#N', 'log10 of MFC', 0.80),
  ('CCOC(=O)c1cc(-c2ccc(OC)cc2)[nH]c1NNC(C)=O', 'log10 of MFC', 1.40),
  ('OC(Cn1cncn1)(Cn1cncn1)c1ccc(F)cc1F', 'log10 of MFC', 1.70);

###

# Tested on: Candida parapsilosis
# assay.method.text: Antimicrobial activity against Candida parapsilosis by broth microdilution method
# Assay type: functional
# condition.summary: Lodderomyces parapsilosis
log10 of MIC values for the molecules below.
observable: log10 of MIC (log10 of the value in µg/mL)

INSERT INTO measurements (record_smiles, observable, reported) VALUES
  ('CCOC(=O)c1cc(-c2ccc(OC)cc2)[nH]c1NNC(=O)C(C)C', 'log10 of MIC', 0.80),
  ('CCC(=O)NNc1[nH]c(-c2ccccc2)cc1C#N', 'log10 of MIC', 0.49),
  ('CCCC(=O)NNc1[nH]c(-c2ccc(C)cc2)cc1C(=O)OCC', 'log10 of MIC', 1.40),
  ('CCOC(=O)c1cc(-c2ccccc2)[nH]c1NNC(C)=O', 'log10 of MIC', 1.70),
  ('CCOC(=O)c1cc(-c2ccc(C)cc2)[nH]c1NNC(C)=O', 'log10 of MIC', 1.70),
  ('CCOC(=O)NNc1[nH]c(-c2ccc(C)cc2)cc1C(=O)OCC', 'log10 of MIC', 2.00),
  ('COC(=O)c1cc(-c2ccccc2)[nH]c1NNC(C)=O', 'log10 of MIC', 0.80),
  ('CCOC(=O)NNc1[nH]c(-c2ccccc2)cc1C(=O)OCC', 'log10 of MIC', 0.80),
  ('CCOC(=O)c1cc(-c2ccccc2)[nH]c1NNC(=O)CC', 'log10 of MIC', 0.80),
  ('CCOC(=O)NNc1[nH]c(-c2ccccc2)cc1C#N', 'log10 of MIC', 0.80),
  ('COCCC(=O)NNc1[nH]c(-c2ccc(OC)cc2)cc1C#N', 'log10 of MIC', 0.80);

###

# System: Candida parapsilosis
# assay.method.text: Antimicrobial activity against Candida parapsilosis by broth microdilution method
# Type: functional
# condition.summary: Lodderomyces parapsilosis
Kindly apply the following: Y if MIC is less than 10 µg/mL, N in every other case.

INSERT INTO measurements (record_smiles, class_label) VALUES
  ('COc1ccc(-c2cc(C#N)c(NNC(=O)C(C)C)[nH]2)cc1', 'N'),
  ('CCOC(=O)c1cc(-c2ccc(C)cc2)[nH]c1NNC(=O)C(C)C', 'N'),
  ('COCCC(=O)NNc1[nH]c(-c2ccccc2)cc1C(=O)OC', 'N'),
  ('CCC(=O)NNc1[nH]c(-c2ccc(OC)cc2)cc1C(=O)OC', 'Y'),
  ('CCCC(=O)NNc1[nH]c(-c2ccc(OC)cc2)cc1C(=O)OCC', 'N'),
  ('COc1ccc(-c2cc(C#N)c(NNC(C)=O)[nH]2)cc1', 'Y'),
  ('CCCC(=O)NNc1[nH]c(-c2ccc(Cl)cc2)cc1C(=O)OCC', 'N'),
  ('CCOC(=O)c1cc(-c2ccc(Cl)cc2)[nH]c1NNC(C)=O', 'N'),
  ('CCCC(=O)NNc1[nH]c(-c2ccccc2)cc1C(=O)OCC', 'N'),
  ('C[C@@H]1[C@H](O)[C@@H](C)/C=C/C=C/C=C/C=C/C=C/C=C/C=C/[C@H](O[C@@H]2O[C@H](C)[C@@H](O)[C@H](N)[C@@H]2O)C[C@@H]2O[C@](O)(C[C@@H](O)C[C@@H](O)[C@H](O)CC[C@@H](O)C[C@@H](O)CC(=O)O[C@H]1C)C[C@H](O)[C@H]2C(=O)O', 'Y');
